# EXPERIMENTAL_PROTOCOL: chemical genetic growth profiling, strain panel (AID 1159580);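 note: tested at 20 µM; growth read once vehicle control cultures reached saturation at 30 °C; 1 = growth at the plate median or of vehicle wells; lower values mean less growth of the strain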
# TEST_SETTINGS: S. cerevisiae deletion strains, growth OD, locus YNL307C, strain MCK1, active compounds read low
The whole screen tested about 5,500 compounds, of which about 2,000 (36%) were called active. Not shown: some 18% with an inconclusive outcome. This is one part of the list.
MEASUREMENT_NAME: normalized growth
A bare number is all that is needed in reply.

Reference set (3 entries):
O=C(O)c1cc(=O)c2cccc(O)c2[nH]1; 0.981
NCC1OC(OC2C(CO)OC(OC3C(O)C(N)CC(N)C3OC3OC(CO)C(O)CC3N)C2O)C(N)C(O)C1OC1OC(CO)C(O)C(O)C1O (configuration not stated); 1
COc1cccc(OC)c1C(=O)N[C@@H]1C(=O)N2[C@@H]1SC(C)(C)[C@@H]2C(=O)O; 1

Exercise: Form field: reported normalized growth of CC(NCCC(c1ccccc1)c1ccccc1)c1ccccc1 (configuration not stated)
Solution: 0.974

Exercise: Do the same for COc1cnc(NS(=O)(=O)c2ccc(N)cc2)nc1 please
Solution: 0.981

Exercise: Ok, now CC(N)C(O)c1ccc(O)c(O)c1 (configuration not stated)
Solution: 0.99

Exercise: Same read-out for Cc1onc(-c2ccccc2)c1C(=O)NC1C(=O)N2[C@@H]1SC(C)(C)[C@@H]2C(=O)O (some centres not stated) ?
Solution: 1.01
